Ref: patent US8158828B2

Entries and their EC50
Target: ER-β (Rattus norvegicus)
Construct: expressed in transfected cells; host or cells: COS or 293 cells
Assay: ER-β transactivation, ERE-LUC in COS or 293 cells
Assay type: cell-based
REPORTED PROPERTY: EC50

>>> value_reported("CCCc1ccc(C(=O)N(c2ccc(O)cc2)c2ccc(O)cc2)cc1 [Compound 10l]")
"0.027 µM"
>>> value_reported("O=C(c1ccc(O)c(F)c1)N(c1ccccc1)c1ccc(O)cc1 [Compound 10f]")
"0.042 µM"

---

# % Remaining 10 min values compiled below
Assay: Metabolic stability in human liver microsomes
Details: 1 μM substrate, 0.5 mg/mL microsomes, 10 min
REPORTED PROPERTY: % Remaining 10 min (%)

>>> value_reported("O=C(c1ccccc1)N(c1ccc(O)cc1)c1ccc(OCCN2CCCCC2)cc1")
105
>>> value_reported("O=C(c1ccc(O)cc1)N(c1ccc(O)cc1)c1ccc(O)cc1")
140
>>> value_reported("Cl.O=C(c1ccc(F)cc1)N(c1ccc(O)cc1)c1ccc(OCCN2CCCCC2)cc1")
99
>>> value_reported("O=C(c1ccc(F)cc1)N(c1ccc(O)cc1)c1ccc(O)cc1")
119

---

Biological target: ER-β (Rattus norvegicus, UniProt Q62986)
Construct: expressed in transfected cells; host or cells: COS or 293 cells
Sequence (Q62986 whole entry): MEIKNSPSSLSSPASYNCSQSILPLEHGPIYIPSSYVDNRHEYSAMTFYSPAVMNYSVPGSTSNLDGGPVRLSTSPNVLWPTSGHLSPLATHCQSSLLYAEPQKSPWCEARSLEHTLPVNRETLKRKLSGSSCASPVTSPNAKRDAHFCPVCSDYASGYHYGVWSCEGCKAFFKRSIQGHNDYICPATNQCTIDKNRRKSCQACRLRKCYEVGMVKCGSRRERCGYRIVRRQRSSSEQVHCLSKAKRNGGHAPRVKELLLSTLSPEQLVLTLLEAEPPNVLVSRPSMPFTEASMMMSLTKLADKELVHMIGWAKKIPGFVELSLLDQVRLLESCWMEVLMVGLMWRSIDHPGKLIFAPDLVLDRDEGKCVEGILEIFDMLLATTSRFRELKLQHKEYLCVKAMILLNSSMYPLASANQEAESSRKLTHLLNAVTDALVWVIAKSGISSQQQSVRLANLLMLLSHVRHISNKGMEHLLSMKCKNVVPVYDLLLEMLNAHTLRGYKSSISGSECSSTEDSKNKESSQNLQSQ
Assay: ER-β transactivation, ERE-LUC in COS or 293 cells
Assay type: cell-based
Settings: ER beta antagonist; read-out: IC50 (ER-β)
REPORTED PROPERTY: IC50 (nM)

>>> value_reported("Cc1cc(C(=O)N(c2ccc(O)cc2)c2ccc(O)cc2)ccc1O [Compound 10n]")
47

---

Biological target: ER-α (Rattus norvegicus, UniProt P06211)
Sequence (P06211 whole entry): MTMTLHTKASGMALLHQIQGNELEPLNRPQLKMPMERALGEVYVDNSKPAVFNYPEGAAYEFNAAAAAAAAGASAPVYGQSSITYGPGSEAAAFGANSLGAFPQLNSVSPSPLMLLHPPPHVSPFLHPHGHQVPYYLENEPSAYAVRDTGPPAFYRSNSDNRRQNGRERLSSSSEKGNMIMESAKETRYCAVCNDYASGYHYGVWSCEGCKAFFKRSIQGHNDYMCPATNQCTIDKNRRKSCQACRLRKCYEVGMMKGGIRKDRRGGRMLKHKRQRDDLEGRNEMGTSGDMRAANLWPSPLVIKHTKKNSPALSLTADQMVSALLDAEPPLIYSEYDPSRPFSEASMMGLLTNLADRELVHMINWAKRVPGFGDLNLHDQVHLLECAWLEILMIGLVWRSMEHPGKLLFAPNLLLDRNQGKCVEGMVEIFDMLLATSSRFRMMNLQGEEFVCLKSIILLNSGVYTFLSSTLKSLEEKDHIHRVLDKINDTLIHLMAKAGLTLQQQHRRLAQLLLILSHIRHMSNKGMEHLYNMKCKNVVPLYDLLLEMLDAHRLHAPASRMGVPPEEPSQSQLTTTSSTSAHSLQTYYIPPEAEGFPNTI
Test: ER-α transactivation, ERE-LUC in COS or 293 cells
Details: ER alpha antagonists
REPORTED PROPERTY: IC50 (nM)

>>> value_reported("O=C(c1cccc2ccccc12)N(c1ccc(O)cc1)c1ccc(OCCN2CCCCC2)cc1 [Compound 11f]")
69
>>> value_reported("O=C(c1cccc(F)c1)N(c1ccc(O)cc1)c1ccc(OCCN2CCCCC2)cc1 [Compound 11g]")
16
>>> value_reported("O=C(c1ccccc1)N(c1ccc(O)cc1)c1ccc(OCCN2CCCCC2)cc1")
35

---

Consider the following molecules and their measured % Remaining 60 min readings.
Test: Metabolic stability in human liver microsomes
Settings: 1 μM substrate, 0.5 mg/mL microsomes, 60 min
Procedure: Each substrate or reference control was dissolved at a concentration of 10 mM in DMSO, from which a 5 μM spiking solution was prepared by dilution in water. […] Metabolic stability was defined as the amount of substrate metabolized by the incubation with hepatic microsomes and expressed as a percentage of the initial amount of substrate (% remaining) based on peak area. […]
REPORTED PROPERTY: % Remaining 60 min

>>> value_reported("Cl.O=C(c1ccc(F)cc1)N(c1ccc(O)cc1)c1ccc(OCCN2CCCCC2)cc1")
"70%"
>>> value_reported("O=C(c1ccc(F)cc1)N(c1ccc(O)cc1)c1ccc(O)cc1")
"94%"
>>> value_reported("O=C(c1ccccc1)N(c1ccc(O)cc1)c1ccc(OCCN2CCCCC2)cc1")
"74%"
>>> value_reported("O=C(c1ccc(O)cc1)N(c1ccc(O)cc1)c1ccc(O)cc1")
"103%"

---

The reader will find reported EC50 values listed item by item below.
Target: ER-α (Rattus norvegicus, UniProt P06211)
Assay: ER-α transactivation, ERE-LUC in COS or 293 cells
Details: ER alpha agonists
Protocol: FIG. 1: Effects of the indicated compounds on ER-α transactivation. COS or 293 cells plated in DME without phenol red+10% charcoal stripped fetal bovine serum (csFBS) at 90,000 cells per well of 24 well plates were transfected with 0.25 μg ERE-LUC, 0.02 μg CMV-LUC (Renilla) and 25 ng of ER-α by lipofectamine. Twenty four hours after transfection, the cells were treated as indicated in the figure, harvested 48 hrs after transfection and were assayed for firefly and renilla luciferase. […]
REPORTED PROPERTY: EC50 (nM)

>>> value_reported("O=C(c1ccc(F)cc1)N(c1ccc(O)cc1)c1ccc(O)cc1")
12
>>> value_reported("Oc1ccc(CN(c2ccc(O)cc2)c2ccc(F)cc2)cc1 [Compound 10x]")
16
>>> value_reported("O=C(c1cccc(O)c1)N(c1ccc(O)cc1)c1ccc(O)cc1")
10
>>> value_reported("O=C(c1ccc(O)cc1)N(c1ccc(O)cc1)c1ccc(-c2ccccc2)cc1")
22.4

---

Test system: TRAP positive multinucleated osteoclasts
Assay: TRAP positive multinucleated osteoclasts from bone marrow cells
Type: cell-based, rat
Details: RANKL and GMCSF, 12 days
REPORTED PROPERTY: osteoclast differentiation / osteoclast activity

>>> value_reported("O=C(c1ccc(O)cc1)N(c1ccc(O)cc1)c1ccc(O)cc1")
"suppressed osteoclasts"
>>> value_reported("O=C(c1ccccc1)N(c1ccc(O)cc1)c1ccc(O)cc1 [Compound 3d, N,N-bis-(4-hydroxyphenyl)-benzamide]")
"suppressed osteoclasts"
